Test system: M. tuberculosis H37Rv (ATCC 27294)
ASSAY_COMMENT: MIC by broth dilution method, M. tuberculosis H37Rv
Format: cell-based
CONDITION: Mycobacterium tuberculosis, 504 h, broth dilution, 3 weeks; read-out: MIC M. tb H37Rv
# fulfilled = MIC below 2 mg/L (exclusive); not fulfilled = MIC at/above 2 mg/L

Some entries whose results are on file:
> print(dat)
                    structure.smiles.string  discrete.label
1  C[C@]1(COc2ccccc2-n2cc(-c3ccc(OC(F)(F)F)cc3)nn2)Cn2cc([N+](=O)[O-])nc2O1   not fulfilled
2  C[C@]1(COc2ccccc2-n2cc(-c3ccc(F)cc3)nn2)Cn2cc([N+](=O)[O-])nc2O1       fulfilled

Next, consider the following molecule.
Q) is_below(MIC, 2 mg/L) for C[C@]1(COc2ccc(-c3cc(-c4ccc(F)cc4F)on3)cc2)Cn2cc([N+](=O)[O-])nc2O1 ?
A) fulfilled

---

ASSAY_COMMENT: In vivo pharmacokinetics, oral, mice
Design: species or system Balb/c mice
CONDITION: 5 mg/kg oral, plasma
Mark 1 for reported CLB of 0.1 mL/min/kg or greater; mark 0 for anything smaller.

Some entries whose results are on file:
> print(dat)
                                   compound  discrete.label
1  C[C@]1(COc2ccc(-c3cc(COc4ccc(OC(F)(F)F)cc4)on3)cc2)Cn2cc([N+](=O)[O-])nc2O1               0
2  C[C@]1(COc2ccc(-c3cc(COc4ccc(F)cc4)on3)cc2)Cn2cc([N+](=O)[O-])nc2O1               1
3  C[C@]1(COc2ccc(-n3cc(COc4ccc(OC(F)(F)F)cc4)nn3)cc2)Cn2cc([N+](=O)[O-])nc2O1               1

Q) In plain terms: is recorded CLB at least 0.1 mL/min/kg for C[C@]1(COc2ccc(N3CCC(Oc4ccc(OC(F)(F)F)cc4)CC3)cc2)Cn2cc([N+](=O)[O-])nc2O1 [OPC-67683, reference compound] ?
A) 0

Q) Now consider C[C@]1(COc2cccc(-n3cc(COc4ccc(OC(F)(F)F)cc4)nn3)c2)Cn2cc([N+](=O)[O-])nc2O1 and answer again.
A) 1

---

System: M. tuberculosis H37Rv (ATCC 27294)
ASSAY_COMMENT: MIC by broth dilution method, M. tuberculosis H37Rv
Type: cell-based
CONDITION: Mycobacterium tuberculosis, 504 h, broth dilution, 3 weeks; read-out: MIC M. tb H37Rv
# MIC values compiled below

Consider the reported MIC for these compounds:
> print(dat)
                                   compound               target.or.test.system       value
1  C[C@]1(COc2cccc(-n3cc(COc4ccccc4F)nn3)c2)Cn2cc([N+](=O)[O-])nc2O1  M. tuberculosis H37Rv (ATCC 27294)     2 µg/mL
2  CC(C)c1ccc(OCc2cc(-c3ccc(OC[C@@]4(C)Cn5cc([N+](=O)[O-])nc5O4)cc3)no2)cc1  M. tuberculosis H37Rv (ATCC 27294)  0.25 µg/mL
3  C[C@]1(COc2ccc(-n3cc(COc4ccc(F)cc4)nn3)cc2)Cn2cc([N+](=O)[O-])nc2O1  M. tuberculosis H37Rv (ATCC 27294)   0.5 µg/mL

Q) Need MIC of C[C@]1(COc2ccc(NC(=O)Nc3ccc(OC(F)(F)F)cc3)cc2)Cn2cc([N+](=O)[O-])nc2O1 , thanks.
A) 0.5 µg/mL

Q) Now consider C[C@]1(COc2cccc(-n3cc(-c4ccc(OC(F)(F)F)cc4)nn3)c2)Cn2cc([N+](=O)[O-])nc2O1 and answer again.
A) 4 µg/mL

Q) Now consider C[C@]1(COc2ccc(-c3cc(-c4ccccn4)on3)cc2)Cn2cc([N+](=O)[O-])nc2O1 and answer again.
A) 2 µg/mL

Q) Now consider C[C@]1(COc2ccc(-n3nnnc3-c3ccc(OC(F)(F)F)cc3)cc2)Cn2cc([N+](=O)[O-])nc2O1 and answer again.
A) 2 µg/mL

These measurements were taken from patent US9845330B2.
